- Method: soluble on expression in E. coli; label from the status in PepcDB or PDB records
Measure Name: soluble on expression in E. coli

>>> data_value("MNTPSRTHLVIIPSYNPGPKVYETVQAARRYWNPVWVVVDGSTDGTWEGLLKLSAEDSGLVVLGMPANRGKGAAVLRGLLTSRRKGFTHALVMDSDGQHPADRIPEFMARSQEEPDAMILGVPVFDDSAPSLRVKGRRISNWWANLETLWCGIGDSLFGFGVYPIQALCVIMQDHQWMRRFDFDPEAAVRLCWAGIRPVNLPVPVYYPKPEEGGTSHFHYWRDNALLTWMHVRLMFGFLARLPILLARIVRRPEILEHHHHHH")
"not soluble"
>>> data_value("DHLHVIGDIYDRGPAPDKIMDRLMSYHSLDIQLGNHDMIWLAAYSGSLACLANVVRICARYGNLDLLEERYAIDLTALKKFSLETYKENPAFAPKKNPYRALTEAEKQVAMRVQQAIAIIQEKLEGQIIGRRPDFNLAHRLRLDKIQGETITFDECRYTLINSCFQTVSEEQPYQLTREEKQIIDDLLTQFQSSPRLTKHMRFLMEKASLYLVYNQNLLIHGCLPLNADGTFQAYTFKGHSYSGKALVDFFQEMLEEAYAQPASTDDYATDCLWYLWCGEGSSLFGKRAMKTFERYFLAEKETHYEEKNPYYSLRDTVEVCERILDEFEVTGENRHIINGHTPVKRTKGESPIKANGTLLVIDGGFSKSYQTITGIAGYTLLYNS")
"not soluble"
>>> data_value("QVKLQQSGGGLVKPGASLKLSCVTSGFTFRKFGMSWVRQTSDKCLEWVASISTGGYNTYYSDNVKGRFTISRENAKNTLYLQMSSLKSEDTALYYCTRGYSSTSYAMDYWGQGTTVTVSGIEGR")
"soluble"
>>> data_value("MGSDKIHHHHHHMKSTTVPSEGGGGLDATTRTSVQPHPLHGPDATWQETNCYIDLWIELLHAWGLDPRAALPFTVAQDFEGDHFTFFKYPQADLETLYGTVVQEMAVYDTLQAHVVTQVERGHTVLVEVDSYYLPDTHATAYKREHVKTTVAIDNIDPHAQRLSYFHSLGYHSAHDEDYRGLMRLSRELSGNGNILFPYAECAKRVRPALTMPAMADASVALMRQHLDRLPAINPVTLWRREFDAHMDTLLARDDAYFHLYTFNLPRQLGANFEMLHHWLRWLDEQGRGNPLAARAAESAATIAAEAKVLQFRLARAVARRRADPCTQSLDVLECCYDKTVEGLLSAFGDTRLAAA")
"not soluble"
>>> data_value("MGSDKIHHHHHHMSTPTRIITSKDIETGKHISPAQRLRIMNADEWEEFIEEWTDSLKKEYFKVERLGGAGDKGRDIVAQLENAEIWDNYQCKHYGHSLRPSDIWTEIGKLVYYTAIGDFTCPRKYFFIAPLGVGTSLSDLLKNPRKLVQGLRENWDKYCKDKITQNCLIKLSDMEPQLEKIDFSIFGYVTPLTIIEQHRKTPHFITRFGGGLPKREIPPEPPIKSTSEESEYLKKILQAYSDFNKQDISTIDDVTDIDLTEHYKDSRIQFYSAEALKRFSRDALPENEFKLLQQEFLNGIKDEIRNPVHANGYLRLLEVVKVARALQITSHALIDCLMVNDRGGICHQLANDNESIAWAKNG")
"not soluble"
>>> data_value("SKSKEPLLNGFFWNRTSIYYNCQVIIEVTEMLHNASLLIDDIEDSSKLRRGFPVAHSIYGIPSVINSANYVYFLGLEKVLMLEHPEAVRVFTRQLLELHRGQGLDIHWRDTYTCPSEAEYRAMVLQKTGGLFGLAVGLMQLFSDWKRDLKPLLDTLGLYFQIRDDYANLNSKQYSANKSFCEDLTEGKFSFPTIHAIWSHPESTQVQNILRRRTENLDIKRYCVDYLEKVGSFAYTRQTLLDLEVEAYRLIKELGGNPELEALVEHLSRMYKEPEGGATVSQSK")
"soluble"
>>> data_value("MGSDKIHHHHHHMKDDQWLEARAHGDPMFPCNVYRVKEVNGQVIIHCHWHHEMEWIYMEAGEAEFQIGTKMTTVRAGEGLFIPSGHLHGAYPVSDKPFSLYATVVHPDFISSFGYDLIQSRYIDPFKDSERTGPIKLCPTHYWMSDMLTMLQATISQFQQKEEGYELVIKANLLQMMAELVKHFPRTEEQKTGTPQQIRQIKKVLQFIDEHYDEKLTIKQLANLVQMSEGHFSRFFKSIVRMTAVEYIHTQRLNKAARLLRETDRTIMDISMSVGFDHPSYFIKLFKRHKRCTPSEFRRIGLPTFSENMKT")
"not soluble"
>>> data_value("MSLKQYKAYLIDLDGTMYMGTDEIDGAKQFIDYLNVKGIPHLYVTNNSTKTPEQVTEKLREMHIDAKPEEVVTSALATADYISEQSPGASVYMLGGSGLNTALTEAGLVIKNDEHVDYVVIGLDEQVTYEKLAIATLGVRNGATFISTNPDVSIPKERGLLPGNGAITSVVSVSTGVSPQFIGKPEPIIMVKALEILGLDKSEVAMVGDLYDTDIMSGINVGMDTIHVQTGVSTLEDVQNKNVPPTYSFKDLNEAIAELEKEGHHHHHH")
"soluble"
>>> data_value("MGSDKIHHHHHHMNYSHFVGLDVGKKTFDASLMSADEKELSHKSFDNTPTGIQSLLDWIAGYHLSLSKLLFCAENMGSYVTELSVSSVSMGFSLALVCPLTIKKSIGLQRGKNDRIDAKRIANYAVLHYRKLELYKLPDKDLVRLRGWIIIRDNLVKQKVSSIKLLETFSWMAKLADVTESISFLEEQLKSIKERILEVEEDMEQLIAASTSLYTNYLLLRSIKGIGIINAIVLLCVTDNFQRFDNPRKFACYCGVAPFEHTSGISIRGKTQTSSLANKEVKVYLTRAAITAISWDPQMKAYYKRKIAEGKHKASVINAVRAKIIARSFAVIRRQTPFVTLAV")
"not soluble"
>>> data_value("MGSDKIHHHHHHMREYIKEGIKLAVTNIPEDVVSAIREALEREESKIAKYNLEMILKAIDISRKEGIPVCQDTGTPIFFVRTNGPINKIYDEIVKGVEIATREVPLRPNALHVLDGKVIGNVPEVHFEPGKETLISILMKGGGSENCTALFPLTPAEGLEGVKNKVIEHVQSCGGKPCPPIIVGIGIASPAEKAIILAKKALLRRISERHPNEKLAKFERELLEEINSLGIGPMGLGGRTTALDVKVEVETRHPASYIVGVVIQCWAHRRAFIKVSEGGVKIWQ")
"not soluble"
